Test system: A375 multi-cell spheroids with HUVEC/MSC, viability
Test: Anticancer human tumor A375 cell line growth inhibition [GQUAD];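 note: spheroids exposed to compounds for seven days before readout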
Conditions: second compound 3.16 µM; first compound 10 µM; hits give low values
Assay endpoint: viability, T/C (%)
Only the number, expressed in %, is required.

Recorded results for 4 compounds are shown here.
| Compound | Measurement target | Readout unit | viability, T/C |
| --- | --- | --- | --- |
| CC(C)n1c(=O)n(C)c2cnc3cc(F)c(-c4ccc(OCCCN5CCCCC5)nc4)cc3c21 + Cc1[nH]c2ccc(F)cc2c1-c1nc2c3cccnc3c3ncccc3c2[nH]1 | A375 multi-cell spheroids with HUVEC/MSC, viability | % | 29.3 |
| CC(=O)O[C@H]1C(=O)[C@@]2(C)[C@H]([C@H](OC(=O)c3ccccc3)[C@]3(O)C[C@H](OC(=O)[C@H](O)[C@@H](NC(=O)c4ccccc4)c4ccccc4)C(C)=C1C3(C)C)[C@]1(OC(C)=O)CO[C@@H]1C[C@@H]2O + Cc1cnc(CNC(=O)c2c(=O)c3ccc(N4CCCN(C)CC4)nc3n3c2sc2ccccc23)cn1 | A375 multi-cell spheroids with HUVEC/MSC, viability | % | 33.7 |
| Cc1cccc(N(C)C(=O)C2C(O)CCN2c2nc(C)cc(C(F)(F)F)c2C#N)c1 (stereo not given) + Cc1[nH]c2ccc(F)cc2c1-c1nc2c3cccnc3c3ncccc3c2[nH]1 | A375 multi-cell spheroids with HUVEC/MSC, viability | % | 79.4 |
| CC1COCCN1c1cc(C2(S(C)(=N)=O)CC2)nc(-c2ccnc3[nH]ccc23)n1 (stereo not given) + CN(C)c1ccc(Nc2c3ccc(NC(=O)CCN4CCCC4)cc3nc3cc(NC(=O)CCN4CCCC4)ccc23)cc1 | A375 multi-cell spheroids with HUVEC/MSC, viability | % | 40.3 |

Consider now this further compound.
Q: Quick one: viability, T/C of CC(C)(O)C1CCC(Nc2ccc3ncc(-c4cccc(C(F)(F)F)c4)n3n2)CC1 (stereo not given) + Cc1cnc(CNC(=O)c2c(=O)c3ccc(N4CCCN(C)CC4)nc3n3c2sc2ccccc23)cn1 ?
Result: 23.8

From: PubChem BioAssay AID2060485
